Tested on: HT29 colon
Experiment: NCI-60 one-dose screen, 48 h (100 = growth as untreated, 0 = no growth, -100 = all killed)
Details: 10 µM unless noted
Compounds without any hit were thinned out: in the full panel of roughly 83,000, 20% have a hit.
Assay readout: growth (%)
Numeric only. Scale: %

• CC1(C)CN1P(=O)(N1CC1(C)C)N1CC1(C)C (stereo not drawn) = 120
• COc1cc([C@@H]2c3cc4c(cc3[C@H](OC(C)=O)[C@H]3COC(=O)[C@H]23)OCO4)cc(OC)c1OC = 5.66
• CC(C)COC(C[N+](=O)[O-])C(Cl)(Cl)Cl (stereo not drawn) = 106
• COC(=O)[C@@H](C)C[C@H](Cc1ccc2ccccc2c1)NC(=O)c1csc([C@@H](C[C@H](C(C)C)N(C)C(=O)[C@@H](NC(=O)[C@H]2CCCCN2C)C(C)C)OC(C)=O)n1 = 1.71
• C[C@]12CCc3sc(NCCc4ccccc4)nc3C1=CC[C@@H]1[C@@H]2CC[C@]2(C)C(=O)CC[C@@H]12 = 34.3

Reported growth for CC1CCCC(C[N+](C)(C)C)C1=O (stereo not drawn) was 105

Reported growth for CC1[C@H](C)OC(=O)CC(O)CC(O)CC(O)CCC(O)C(O)C[C@]2(O)CC(O)C(C(=O)O)C(CC(OC3O[C@H](C)[C@@H](O)[C@H](N)[C@@H]3O)/C=C/C=C/C=C/C=C/CC/C=C/C=C/[C@H](C)[C@H]1O)O2 (stereo partly drawn) was 107

Reported growth for O=C(Nc1ccncc1F)c1cn(CC2CC2)c2ccccc12 was 102

###

System: HCC-2998 colon
Assay: NCI-60 one-dose screen, 48 h (100 = growth as untreated, 0 = no growth, -100 = all killed)
Conditions: 10 µM unless noted
About 83,000 compounds went through this panel and 20% of them were active in at least one assay; those are over-represented in the sample as a whole.
Listed below: growth values for each entry.
Numeric only. Scale: %

• CC1(C)N=C(N)N=C(N)N1c1ccc(CCCCc2ccc(Cl)c(S(=O)(=O)F)c2)c(Cl)c1 = 23.7
• CC[C@]12C=CCN3CC[C@@]4(c5ccc(OC)cc5N(C)[C@H]4[C@@](O)(C(=O)OC)[C@@H]1OC(=O)CCCC[P+](c1ccccc1)(c1ccccc1)c1ccccc1)[C@@H]32 = 15.9
• O=C(Nc1ccc([As]=[As]c2ccc(NC(=O)c3ccccc3)cc2)cc1)c1ccccc1 (configuration not stated) = -80.5
• COC(=O)CC[C@H](Cc1ccccc1)NC(=O)c1csc([C@@H](C[C@H](C(C)C)N(C)C(=O)[C@@H](NC(=O)[C@H]2CCCCN2C)C(C)C)OC(C)=O)n1 = 42.4
• CCCCCC1(CCBr)C(=O)NC(=O)NC1=O = 115
• O=[N+]([O-])c1ccc(OP(=O)(CCl)N(CCCl)CCCl)cc1 (configuration not stated) = 105

Reported growth for [Cl][Hg][c]1cc[c]([Hg][Cl])o1 was 106

Reported growth for COc1cc2c(=O)n(C3CCCCCCC3)c3c4cc[nH]c4ncc3c2cc1OC was 96.2

Reported growth for Cc1ccc(Nc2nc3c(s2)C2=CC[C@@H]4[C@H](CC[C@]5(C)C(=O)CC[C@@H]45)[C@@]2(C)CC3)cc1 was 78.2

Reported growth for CCc1ccccc1[C@@H]1C[C@]2(C)CCO[C@@H]2OO1 was 93.7

Reported growth for Cc1ccc(N2COOC3(OOC2)C2CC4CC(C2)CC3C4)cc1 was 107

Reported growth for Cc1sc2c(c1C)C(c1ccc(Cl)cc1)=N[C@@H](CC(=O)OC(C)(C)C)c1nnc(C)n1-2 was 19.1

Reported growth for CC(=O)O[C@H]1C(=O)[C@@]2(C)[C@H]([C@H](OC(=O)c3ccccc3)[C@]3(O)C[C@H](OC(=O)[C@H](OC(=O)OC[C@H]4COC(C)(C)O4)[C@@H](NC(=O)c4ccccc4)c4ccccc4)C(C)=C1C3(C)C)[C@]1(OC(C)=O)CO[C@@H]1C[C@@H]2O was 1.92

Origin of the recorded values: PubChem BioAssay (NCI)
